experiment: protein stability index of a GFP-peptide fusion (yeast GPS) (PSI 1-4); higher = more stable; sorted into four equal gates, so the index is relative within each strain; details: doa10∆
Listed here: items and their measured protein stability index.
Number only, no unit.

Some solved entries appear below for comparison.
>>> experimental_result("MASTAVMMDVDSSGVND [RPN3]")
3.17
>>> experimental_result("MEYLKSSKSLDLNTRIS [RPN5]")
2.83

protein stability index lookup needed for DSLSVPKVSAGDSGISP [SIR4] , thanks.
3.24

Subsequent entry: YTKPYPNFEASFVHGVV [SMC2]
2.53

Subsequent entry: VADAKQLGEWAGLGKID [RPS12]
3.67

Subsequent entry: IAPPVAPHDSEATLLTN [SNF5]
2.99

Subsequent entry: MSAKAQNPMRDLKIEKL [RPL11A]
3.39

Subsequent entry: LPYAIAGSGSTFIYGYC [PRE3]
2.13

Subsequent entry: FFAYFIGWCKEDPKRRA [YJL039C/NUP192]
2.15

Subsequent entry: KIAGIEGHLAEIRAKEY [SRB2]
3.36

Subsequent entry: MSTDVAAAQAQSKIDLT [SEM1]
2.91

Subsequent entry: TYVITKNGKIYLKHNSI [RET1]
2.72

Subsequent entry: EMAEKIDFTLLNRLLRL [PRP8]
2.72

Subsequent entry: TKYSAKYAQDGAGIERE [RPL3]
3.04

Subsequent entry: EGTSISVHLIECYKQLF [YCS4]
3.46

Subsequent entry: SSNCHVRQKIKTLKRMI [POP1]
1.41

====

assay: protein stability index of a GFP-peptide fusion (yeast GPS) (PSI 1-4); higher = more stable; sorted into four equal gates, so the index is relative within each strain; settings: pdr5∆
experimental-endpoint: protein stability index
Number only, no unit.

Some solved entries appear below for comparison.
>>> experimental_result("TFGIRRNEKIAVHVTVR [RPL11A]")
1.68
>>> experimental_result("VHGKAPMLMANNDVFTI [SSN3]")
2.47
>>> experimental_result("GQNLKDLLVNFSAGAAA [RPP1A]")
2.18
>>> experimental_result("TYVITKNGKIYLKHNSI [RET1]")
2.54
>>> experimental_result("PVYTAQWSATWIAMRRE [PRP8]")
1.96
>>> experimental_result("VEESSEKKQKTESQDVE [DPB4]")
3.33

protein stability index lookup needed for YDKKKRVVVPQALRVLR [RPL16B] , thanks.
2.09

Subsequent entry: HNSVKRYQIMLPEQLKS [SNM1]
1.59

Subsequent entry: NSNDSVFVGSGKGTGKT [BRR2]
3.27

====

assay: protein stability index of a GFP-peptide fusion (yeast GPS) (PSI 1-4); higher = more stable; sorted into four equal gates, so the index is relative within each strain; settings: pdr5∆
experimental-endpoint: protein stability index
Number only, no unit.

Some solved entries appear below for comparison.
>>> experimental_result("EKAKSAGVQGSKVSKQQ [RPL24B]")
3.4
>>> experimental_result("TIKVVKRSMDAEQLGHA [RPP1]")
3.28
>>> experimental_result("STTFADCPVVPADPDIL [RPC40]")
2.87
>>> experimental_result("GAGIQIIMQADLALKMG [FAS2]")
2.09
>>> experimental_result("NSNGIAMASLYLTGGQQ [SMD1]")
2.66

protein stability index lookup needed for TFSVYHESTSRTDQYTI [YMR129W/POM152] , thanks.
2.64

Subsequent entry: SKALNSILESSMFLRID [RGR1]
2.67

Subsequent entry: EWNGKSFQKKSNDKVVE [ISW2]
3.34
